# Tested on: MCF7
# Test: NCI tumour cell line growth inhibition, 48 h
The source made the active and inactive calls. No stated cut-off is given here; in the data, active = GI50 up to about 1.1 µM and inactive = higher.
Parameter call: string, one of active, inactive

Worked examples follow.
Compound	Subject Of Test	Assigned Category
CCC(=O)OC1=C(c2ccccc2)Sc2ccc(Cl)cc2-n2cccc21	MCF7	inactive
c1ccc(-c2cccc(-c3ccccn3)n2)nc1	MCF7	active
CC(NC(=O)N(C)C)NC(=O)N(C)C	MCF7	inactive
COc1cc(CNc2ccc(SC)cc2)cc(OC)c1OC	MCF7	inactive
COc1cc(S(=O)(=O)Nc2ccc(-c3csc(N4C(=O)C(Cl)C4c4ccccc4)n3)cc2)ccc1Cl (stereo unspecified)	MCF7	inactive

stdin: Short answer needed: outcome of this test for NC1(CCNC(=O)c2ccccc2)CCN(C(=O)c2ccccc2)CC1 ?
stdout: inactive

stdin: Kindly provide the recorded test outcome for the following compound: NNC(=O)c1nn[nH]c1C(=O)NN
stdout: inactive

stdin: Could you kindly confirm the outcome this assay logged for Cc1cn(CCCCCCOC(=O)NC(CCCNC(N)=O)C(=O)O)c(=O)[nH]c1=O (stereo unspecified) ?
stdout: inactive

stdin: // outcome(item) with item = Cc1ccc([N+](=O)[O-])cc1S(=O)(=O)Nc1ccc(C2=NN(S(=O)(=O)c3cc([N+](=O)[O-])ccc3C)C(c3ccccc3)C2)cc1 (stereo unspecified)
stdout: inactive

stdin: Lab log entry: CC(C)=CCN1c2ccccc2NC(=O)CC1C (stereo unspecified) — outcome as called in the assay?
stdout: inactive

stdin: Record request — test call for CC1Cc2cc(O)ccc2C2[C@@H]1C1CC[C@H](O)[C@@]1(C)C[C@@H]2O[N+](=O)[O-] (stereo partly specified)
stdout: inactive

stdin: Check the results log: what was the call for C/C=N\n1c(C)c(C#N)c(C#N)c1N ?
stdout: inactive

stdin: // outcome(item) with item = COc1cc(/C=C/C(=O)OC[C@H](Br)[C@H](OC(C)=O)c2ccc3c(c2)OCO3)cc(OC)c1OC
stdout: inactive

stdin: Status in this test for [N-]=[N+]=NC(c1cn(C2CC(O)C(CO)O2)c(=O)[nH]c1=O)C(Cl)I (stereo unspecified) ?
stdout: inactive

stdin: Just curious, what result did Cc1cn(C2CC(N=[N+]=[N-])C(CO)O2)c(=O)n(CCCCBr)c1=O (stereo unspecified) get here?
stdout: inactive

stdin: // outcome(item) with item = O=c1oc2c/c(=C\c3ccccc3)c(=O)c3cccc1c3-2
stdout: inactive

stdin: I would be grateful if you could indicate the recorded call for CN(C(=O)C1=CCC2(CC1)OCCO2)c1ccccc1OS(=O)(=O)C(F)(F)F .
stdout: inactive

stdin: Test call for this compound, please: CC(C)OC(=O)[C@@H](O)[C@H](CO)C1=CC([Si](C)(C)c2ccccc2)=CON1
stdout: inactive

stdin: Could you check what this test reported for O=C1C=CC(=O)c2c1ccc1c3ccccc3n(-c3cccc([N+](=O)[O-])c3)c21 ?
stdout: inactive

stdin: What outcome does the record of this test show for O=c1oc2c([N+](=O)[O-])cc([N+](=O)[O-])cc2c2ccccc12 ?
stdout: inactive

stdin: Call for entry COc1cc(C2c3cc4c(cc3[C@@H](Nc3ccccc3)C3CO[C@@H](OC)[C@H]23)OCO4)cc(OC)c1O (stereo partly specified) :
stdout: inactive

stdin: Any idea what this test logged for Cc1oc(N)c(S(=O)(=O)/C(C#N)=C/c2ccccc2[N+](=O)[O-])c1C ?
stdout: inactive

stdin: Lab log entry: COC(=O)CSSCc1ccc([N+](=O)[O-])cc1 — outcome as called in the assay?
stdout: inactive

stdin: Could you check what this test reported for CCCCCCCCCCNC1CC(OC2CC(O)(C(O)CO)Cc3c(O)c4c(c(O)c32)C(=O)c2c(OC)cccc2C4=O)OC(C)C1O (stereo unspecified) ?
stdout: active

stdin: For this compound, state the assay outcome: CCOC(=O)c1cc(C2(O)CCN(CC(C)CC)C2=O)c(-c2cc(C)no2)[nH]1 (stereo unspecified)
stdout: inactive

stdin: Kindly provide the recorded test outcome for the following compound: Cc1c([N+](=O)[O-])ccc2c(NCCCN(C)C)ccnc12
stdout: inactive

stdin: Given COc1ccc2[nH]c(C(=O)N3CC(CCl)c4c3cc(N)c3ccccc43)cc2c1 (stereo unspecified) , state the outcome it received in this test.
stdout: active

Origin of measurements: ChEMBL document CHEMBL1201862
